Reference source for all entries: PubChem BioAssay (NCI)

Test system: SK-OV-3 ovarian
method: NCI-60 one-dose screen, 48 h
experimental parameters: 10 µM unless noted
Compounds without any hit were thinned out: in the full panel of roughly 83,000, 20% have a hit. The source made the active and inactive calls. Rule for the calls: active = growth percent below 10; inactive = the rest.
Outcome field: choose from active, inactive

Recorded results for 3 compounds are shown here.
[
  {
    "compound": "CCCCNC(=O)Oc1ccc(/C(=C(/C)Cc2ccc(OC)cc2)c2ccc(OCCN3CCCCC3)cc2)cc1",
    "assigned label": "inactive"
  },
  {
    "compound": "CCN1CCN(c2cc(C)nc(N(CCNc3ccnc4cc(Cl)ccc34)Cc3ccc4c(c3)OCO4)n2)CC1",
    "assigned label": "active"
  },
  {
    "compound": "CNCc1cccc2c1OCCOCCOCCNS(=O)(=O)c1ccc(cc1)-c1cnc(N)c(n1)C(=O)N2",
    "assigned label": "inactive"
  }
]

Problem: Entry COC(=O)c1c2c(c(C)[n+]([O-])c1C)C(=O)C(NCc1cccc(Cl)c1)=CC2=O : call = ?
Solution: inactive

Problem: Entry CCN1C(=O)N(CC)C2C1NC(=S)N2/N=C/c1ccc(C(F)(F)F)cc1 (configuration not stated) : call = ?
Solution: inactive

Problem: Entry CCN(CC)CCN1C(=O)c2c(c(C)c3c(oc4ccc(OC)cc43)c2C)C1=O : call = ?
Solution: inactive

Problem: Entry O=c1ccc(=O)n(-c2nc(-c3ccc([N+](=O)[O-])cc3)cs2)[nH]1 : call = ?
Solution: inactive

---

Tested on: NCI-H522 lung
method: NCI-60 one-dose screen, 48 h
experimental parameters: 10 µM unless noted
Method: Growth inhibition of the NCI-H522 human Non-Small Cell Lung tumor cell line is measured as a screen for anti-cancer activity. Cells are grown in 96 well plates and exposed to the test compound for 48 hours. Compounds are tested at a single concentration, which is 10^-5 M for most compounds. The reported endpoint is percent growth (GI% or GIPRCNT), where numbers from 0 - 100% represent growth inhibition, and numbers from -100% - 0 represent cell death. […]
The panel holds about 83,000 compounds, 20% with a hit somewhere; the sample as a whole holds those more often. The source made the active and inactive calls. How the source made its calls: active means growth percent below 10; inactive means the rest.
Outcome field: choose from active, inactive

[
  {
    "molecule": "CCCCNC(=O)Oc1ccc(/C(=C(/C)Cc2ccc(OC)cc2)c2ccc(OCCN3CCCCCC3)cc2)cc1",
    "study system": "NCI-H522 lung",
    "assigned label": "inactive"
  },
  {
    "molecule": "C=CCC(CCCC)(C(=O)OCC)C(=O)OCC",
    "study system": "NCI-H522 lung",
    "assigned label": "inactive"
  },
  {
    "molecule": "CNCc1cccc2c1OCCOCCOCCNS(=O)(=O)c1ccc(cc1)-c1cnc(N)c(n1)C(=O)N2",
    "study system": "NCI-H522 lung",
    "assigned label": "active"
  },
  {
    "molecule": "C=C1CC[C@@H]2[C@](C)(COC(C)=O)[C@H](OC(C)=O)CC[C@@]2(C)[C@@H]1CC(Nc1ccc(S(=O)(=O)NC(C)=O)cc1)C1=CCOC1=O (some centres not stated)",
    "study system": "NCI-H522 lung",
    "assigned label": "active"
  },
  {
    "molecule": "O=S(=O)(Nc1cc(Sc2cccc3cccnc23)c(O)c2ccccc12)c1ccccc1",
    "study system": "NCI-H522 lung",
    "assigned label": "active"
  }
]

Problem: Entry O=C(NC1CC(F)C1)c1cc2cccnc2n1-c1ccc(Cl)c(Cl)c1 (configuration not stated) : call = ?
Solution: inactive

Problem: Entry Nc1[nH]c(=S)nc2oc(-c3ccccc3)c(-c3ccccc3)c12 : call = ?
Solution: inactive

Problem: Entry C=C(C)[C@@H]1CCC[C@]2(C(=O)N3CCN(C)CC3)CC[C@]3(C)[C@@H](CC[C@@H]4[C@@]5(C)CC/C(=N\NC(=O)c6ccncc6)C(C)(C)[C@@H]5CC[C@]43C)[C@@H]12 : call = ?
Solution: inactive

Problem: Entry CSc1nn2c(-c3ccc4ccccc4c3)ccnc2c1C#N : call = ?
Solution: active

Problem: Entry CS(=O)(=O)c1nnc(-c2ccccc2)s1 : call = ?
Solution: inactive

Problem: Entry N#Cc1cccc(C2C3=C(COC3=O)N(CCO)c3cc4c(cc32)CCC4)c1 (configuration not stated) : call = ?
Solution: active

Problem: Entry CCOC(=O)C1=C(C)/C(=C\c2[nH]c(C)c(C(=O)OCC)c2C)N=C1C : call = ?
Solution: inactive

Problem: Entry C=CC(=O)Nc1ccc(Oc2nccc(Nc3nnc(-c4ccc(C)cc4)s3)n2)cc1 : call = ?
Solution: inactive

Problem: Entry CC/C=C\CCC/C=C1/C(=O)C=C[C@@H]1C/C=C\CCCC(=O)OC : call = ?
Solution: inactive

Problem: Entry COc1cc(C2C(C(=O)OCc3ccccc3)=C(C)NC(C)=C2C(=O)OCc2ccccc2)cc(OC)c1OC : call = ?
Solution: inactive
